Just for reference, patent US4391978A is where these values come from.

# pIC50 listing for each entry below
- Target Under Test: receptor, calf striatum ([^3 H]-spiroperidol) (Bos taurus, UniProt P20288)
- Construct: calf striatum was used as the receptor; from tissue; host or cells: calf striatum
- Sequence (P20288 whole entry): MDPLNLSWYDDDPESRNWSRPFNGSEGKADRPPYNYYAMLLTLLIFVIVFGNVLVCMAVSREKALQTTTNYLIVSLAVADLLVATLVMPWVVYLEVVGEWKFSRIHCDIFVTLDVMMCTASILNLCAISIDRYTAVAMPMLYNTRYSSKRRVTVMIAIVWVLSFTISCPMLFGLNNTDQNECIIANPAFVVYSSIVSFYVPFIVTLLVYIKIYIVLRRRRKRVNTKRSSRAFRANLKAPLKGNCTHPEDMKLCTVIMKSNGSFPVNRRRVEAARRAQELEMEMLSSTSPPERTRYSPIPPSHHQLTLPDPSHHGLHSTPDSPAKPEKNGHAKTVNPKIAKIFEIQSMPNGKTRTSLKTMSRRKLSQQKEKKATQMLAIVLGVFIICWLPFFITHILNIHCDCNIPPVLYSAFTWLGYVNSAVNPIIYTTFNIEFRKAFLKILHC
- Experiment Notes: Spiroperidol-Binding Test (in vitro)
- Cond: 50% detachment of specific binding of [^3 H]-spiroperidol; calf striatum; in vitro; read-out: Spiroperidol-Binding IC50
Convention used: pIC50 is expressed as -log10 of the molar concentration.

Example entries begin here.
>>> experimental_result("O=C(c1ccc(F)cc1)[C@@H]1CCN2C[C@@H](c3ccccc3Cl)CC[C@@H]2C1 (relative stereo)")
7.96
>>> experimental_result("O=C(N[C@@H]1CCN2C[C@@H](c3ccccc3Cl)CC[C@@H]2C1)C1CC1 (relative stereo)")
6.26
>>> experimental_result("O=C(N[C@@H]1CCN2C[C@@H](c3ccccc3Cl)CC[C@@H]2C1)c1ccc(F)cc1 (relative stereo)")
7.17
>>> experimental_result("O=C(N[C@@H]1CCN2C[C@@H](c3ccccc3Cl)CC[C@@H]2C1)c1cccs1 (relative stereo)")
6.91
>>> experimental_result("COc1cc(N)c(Cl)cc1C(=O)N[C@@H]1CCN2C[C@@H](c3ccccc3Cl)CC[C@@H]2C1 (relative stereo)")
7.52

Now turn to the next molecule.
stdin: Identify pIC50 associated with the molecule CCS(=O)(=O)c1ccc(OC)c(C(=O)N[C@@H]2CCN3C[C@@H](c4ccccc4Cl)CC[C@@H]3C2)c1 (relative stereo)
stdout: 6.87
